Kindly supply the reported GI50 values for the records listed here.
Record the result as number plus unit.

Request: Report value: GI50, system: THP-1 cells, compound: CCc1nn(CCOCC(F)(F)F)c2c1C(c1ccc(Cl)cc1)N(c1cc(OC)c3nnc(C)n3c1)C2=O (stereo not shown)
Response: 397 nM

Request: Report value: GI50, system: THP-1 cells, compound: COc1ncc(-n2nc(C)c3c2C(=O)N(c2cc(C)c(=O)n(C)c2)C3c2ccc(Cl)cc2)c(OC)n1 (racemic)
Response: 198 nM

Request: Report value: GI50, system: THP-1 cells, compound: CNC(=O)n1nc2c(c1C)C(c1ccc(Cl)cc1)N(c1cc(C)c3nnc(C)n3c1)C2=O (stereo not shown)
Response: 150 nM

Request: Report value: GI50, system: THP-1 cells, compound: CC(=O)N1CC(n2nc(C)c3c2C(=O)N(c2cc(C)c4nnc(C)n4c2)C3c2ccc(Cl)cc2)C1 (stereo not shown)
Response: 243 nM

Request: Report value: GI50, system: THP-1 cells, compound: COc1ncccc1-n1nc(C)c2c1C(=O)N(c1cc(C)c3nnn(C)c3n1)C2c1ccc(Cl)cc1 (stereo not shown)
Response: 39.8 nM

Request: Report value: GI50, system: THP-1 cells, compound: CCn1nc(C)c2c1C(=O)N(c1cc(C)c3nnc(C)n3c1)C2c1ccc(Cl)cc1 (stereo not shown)
Response: 18.8 nM

Request: Report value: GI50, system: THP-1 cells, compound: CCc1nn(CCOC)c2c1C(c1ccc(Cl)cc1)N(c1cc(C)c3nnc(C)n3c1)C2=O (stereo not shown)
Response: 23.5 nM
